MIC overview
test system: STAPHYLOCOCCUS AUREUS A5177; assay: In vitro antibacterial activity, MIC, BHI agar dilution; type: cell-based; conditions: S. aureus A5177, unit assumed
Return type: number; implicit unit µg/mL.

compound	MIC, µg/mL
CC[C@H]1OC(=O)[C@H](C)C(=O)[C@H](C)[C@@H](O[C@@H]2O[C@H](C)C[C@H](N(C)C)[C@H]2O)[C@](C)(OC)C[C@@H](C)C2=NC3CN(CCCc4ccccc4)CC3N3C(=O)O[C@@]1(C)[C@H]3[C@H]2C (stereo partly shown)	0.2
CC[C@H]1OC(=O)[C@H](C)C(=O)[C@H](C)[C@@H](O[C@@H]2O[C@H](C)C[C@H](N(C)C)[C@H]2O)[C@](C)(OC)C[C@@H](C)C2=N[C@H](CN3CCN(C)CC3)CN3C(=O)O[C@@]1(C)[C@H]3[C@H]2C	0.78
CCC1OC(=O)C(C)C(=O)C(C)C(OC2OC(C)CC(N(C)C)C2O)C(C)(OC)CC(C)C2=NC(CCOc3ccccc3)CN3C(=O)OC1(C)C3C2C (stereo not shown)	0.78

Give MIC for this entry on STAPHYLOCOCCUS AUREUS A5177: CC[C@H]1OC(=O)[C@H](C)C(=O)[C@H](C)[C@@H](O[C@@H]2O[C@H](C)C[C@H](N(C)C)[C@H]2O)[C@](C)(OC)C[C@@H](C)C2=NCC(COC(=O)c3ccnc4ccccc34)N3C(=O)O[C@@]1(C)[C@H]3[C@H]2C (stereo partly shown)
0.02

---

test system: STAPHYLOCOCCUS AUREUS CMX 642A; assay: In vitro antibacterial activity, MIC, BHI agar dilution; assay type: cell-based; conditions: S. aureus CMX 642A, unit assumed
property measured: MIC (µg/mL)
Quick note: give the figure in µg/mL, leave out the unit.

Reference set (3 entries):
compound	property measured	measure unit	endpoint value
CC[C@H]1OC(=O)[C@H](C)C(=O)[C@H](C)[C@@H](O[C@@H]2O[C@H](C)C[C@H](N(C)C)[C@H]2O)[C@](C)(OC)C[C@@H](C)C2=N[C@H](COCc3ccccc3)CN3C(=O)O[C@@]1(C)[C@H]3[C@H]2C [Example 88]	MIC	µg/mL	0.39
CC[C@H]1OC(=O)[C@H](C)C(=O)[C@H](C)[C@@H](O[C@@H]2O[C@H](C)C[C@H](N(C)C)[C@H]2O)[C@](C)(OC)C[C@@H](C)C2=NC[C@H](COCc3cccc(F)c3)N3C(=O)O[C@@]1(C)[C@H]3[C@H]2C [Example 72]	MIC	µg/mL	0.1
CC[C@H]1OC(=O)[C@H](C)C(=O)[C@H](C)[C@@H](O[C@@H]2O[C@H](C)C[C@H](N(C)C)[C@H]2O)[C@](C)(OC)C[C@@H](C)C2=NC3CN(CCN(C)C)CC3N3C(=O)O[C@@]1(C)[C@H]3[C@H]2C (stereo partly shown) [Example 129]	MIC	µg/mL	1.56

# input for lookup
Fill in reported MIC for this entry: CC[C@H]1OC(=O)[C@H](C)C(=O)[C@H](C)[C@@H](O[C@@H]2O[C@H](C)C[C@H](N(C)C)[C@H]2O)[C@](C)(OC)C[C@@H](C)C2=NC3CN(Cc4ccccc4)CC3N3C(=O)O[C@@]1(C)[C@H]3[C@H]2C (stereo partly shown) [Example 110]
0.39
